Quantity: glass transition temperature (°C)

A selection of reference data follows.
*Oc1ccc(C(C)(c2ccccc2)c2ccc(OC(*)=S)cc2)cc1 (repeat unit) = 181.00
*CC(*)OC(=O)C(C)(C)CC(C)(C)C (repeat unit) = 55.00
*CC(F)(F)C1(F)C(*)CC(O)(C(F)(F)F)C1(F)F (repeat unit) = 152.00
*CC(*)(C)c1ccc(C(O)C(F)(F)F)cc1 (repeat unit) = 199.00
*Nc1ccc(NC(=O)c2ccc(P(=O)(c3ccccc3)c3ccc(C(*)=O)cc3)cc2)cc1 (repeat unit) = 252.00

(P) *Oc1ccc(C(=O)c2cccc(NC(=O)CCCCCCCCC(=O)Nc3cccc(C(=O)c4ccc(*)cc4)c3)c2)cc1 (repeat unit)
(Q) *Oc1ccc(C(C)(C)c2ccc(Oc3ccc(C(=O)c4c(C(=O)c5ccc(*)cc5)c(-c5ccccc5)c(-c5ccc6ccccc6c5)c(-c5ccc6ccccc6c5)c4-c4ccccc4)cc3)cc2)cc1 (repeat unit)
Given the listed items, does P or Q have the lesser reported glass transition temperature? Response format: the label of the selected entry.
P
(P: 141.00 °C, Q: 264.00 °C)

(1) *C(=O)c1ccc2c(c1)C(=O)N(c1cc(OCCCCCCCCCCCCCCCC)cc(N3C(=O)c4ccc(*)cc4C3=O)c1)C2=O (repeat unit)
(2) *CCC[Si](*)(C)O[Si](C)(C)CCCOc1ccc(C(=O)Oc2ccc(-c3ccc(C#N)cc3)cc2)cc1 (repeat unit)
(3) *Nc1cccc(NC(=O)c2cc(NC(=O)c3ccccc3)cc(C(*)=O)c2)c1 (repeat unit)
(4) *CCCCCCCCCCNC(=O)CCCCCCCCC(=O)N* (repeat unit)
Arrange by glass transition temperature, high to low. List each label, following the requested order.
3, 1, 4, 2
(3: 300.00 °C, 1: 179.00 °C, 4: 60.00 °C, 2: 10.10 °C)

(a) *Oc1ccc(NC(=C(C#N)C#N)c2ccc(-c3ccc(-c4ccc(C(Nc5ccc(*)cc5)=C(C#N)C#N)cc4)cc3)cc2)cc1 (repeat unit)
(b) *Oc1ccc(OC(=O)c2ccc(C(*)=O)cc2Oc2ccc(Oc3ccccc3)cc2)cc1 (repeat unit)
(c) *Oc1ccc(Oc2ccc(C(=O)c3ccc(*)cc3)cc2)cc1C (repeat unit)
Number of compounds to sort: 3. Sort criterion: glass transition temperature, ascending. List each label, following the requested order.
b, c, a
(b: 83.00 °C, c: 151.00 °C, a: 240.00 °C)

Just for reference, the PolyMetriX glass transition set is where these values come from.
